Experiment: Placebo controlled, dose escalation pharmacokinetic study of oral (Z)-Endoxifen capsules (serum endoxifen; incl. accumulation ratios and dose linearity)
Format: in vivo, human
Settings: female, human, serum, oral, 1 mg; Day 1 hr 3; read-out: Serum concentration, Max
value-type: concentration at 3 h (nM)
Just the number please, in nM, no unit attached.

Prompt: Field request: concentration at 3 h | item: CC/C(=C(\c1ccc(O)cc1)c1ccc(OCCNC)cc1)c1ccccc1 [(Z)-Endoxifen]
Completion: 18.7

----------
Test: Placebo controlled, dose escalation pharmacokinetic study of oral (Z)-Endoxifen capsules (serum endoxifen; incl. accumulation ratios and dose linearity)
Type: in vivo, human
Settings: female, human, serum, oral, 1-4 mg; read-out: apparent terminal half life (t½) by dose level
value-type: half-life

Prompt: // query half-life value for entry CC/C(=C(\c1ccc(O)cc1)c1ccc(OCCNC)cc1)c1ccccc1 [(Z)-Endoxifen]
Completion: 42 to 53 h

----------
Assay: Placebo controlled, dose escalation pharmacokinetic study of oral (Z)-Endoxifen capsules (serum endoxifen; incl. accumulation ratios and dose linearity)
Type: in vivo, human
Conditions: female, human, serum, po, 2 mg/day, Day 1; 2 mg/day oral (n = 6); read-out: t1/2, Arithmetic Mean (converted)
value-type: half-life (h)
Unit h implied. Number only.

Prompt: So what does the record say about half-life for CC/C(=C(\c1ccc(O)cc1)c1ccc(OCCNC)cc1)c1ccccc1 [(Z)-Endoxifen] ?
Completion: 49

----------
Assay: Placebo controlled, dose escalation pharmacokinetic study of oral (Z)-Endoxifen capsules (serum endoxifen; incl. accumulation ratios and dose linearity)
Assay type: in vivo, human
Conditions: female, human, serum, oral, 1 mg, Day 21; 1 mg; N = 5; read-out: AUC24hr, Mean
value-type: AUC(0-t) (ng·h/mL)
Report as a plain number; the unit ng·h/mL is understood.

Prompt: Item under review: CC/C(=C(\c1ccc(O)cc1)c1ccc(OCCNC)cc1)c1ccccc1 [(Z)-Endoxifen] . Reported AUC(0-t)?
Completion: 458

----------
Assay: Placebo controlled, dose escalation pharmacokinetic study of oral (Z)-Endoxifen capsules (serum endoxifen; incl. accumulation ratios and dose linearity)
Format: in vivo, human
Settings: female, human, serum, oral, 2 mg, Day 1; 2 mg; N 6; read-out: AUC24hr, Median
value-type: AUC(0-t) (ng·h/mL)
Report the value in ng·h/mL with no unit label.

Prompt: Return reported AUC(0-t); argument: CC/C(=C(\c1ccc(O)cc1)c1ccc(OCCNC)cc1)c1ccccc1 [(Z)-Endoxifen]
Completion: 303

----------
Assay: Placebo controlled, dose escalation pharmacokinetic study of oral (Z)-Endoxifen capsules (serum endoxifen; incl. accumulation ratios and dose linearity)
Format: in vivo, human
Settings: female, human, serum, oral, 1 mg, Day 1; 1 mg; N = 5; read-out: AUCTlast, Median
value-type: AUC(0-t) (ng·h/mL)
Hi! Could you send only the number? It should be in ng·h/mL, unit omitted.

Prompt: I am curious: what AUC(0-t) value has been reported for CC/C(=C(\c1ccc(O)cc1)c1ccc(OCCNC)cc1)c1ccccc1 [(Z)-Endoxifen] ?
Completion: 472

----------
Assay: Placebo controlled, dose escalation pharmacokinetic study of oral (Z)-Endoxifen capsules (serum endoxifen; incl. accumulation ratios and dose linearity)
Type: in vivo, human
Settings: female, human, serum, po, 4 mg, Day 21; dose 4 mg oral once daily; Mean, N 6; read-out: apparent terminal half life (t½) (converted)
value-type: half-life (h)
Enter your answer as a number in h; do not include the unit.

Prompt: I'd like to know its half-life. The compound in question is CC/C(=C(\c1ccc(O)cc1)c1ccc(OCCNC)cc1)c1ccccc1 [(Z)-Endoxifen]
Completion: 45.1

----------
Assay: Placebo controlled, dose escalation pharmacokinetic study of oral (Z)-Endoxifen capsules (serum endoxifen; incl. accumulation ratios and dose linearity)
Format: in vivo, human
Settings: female, human, serum, oral, 2 mg, Day 1; 2 mg; N 6; read-out: Tmax, GeoMean
value-type: Tmax (h)
Value expressed in h; do not type the unit.

Prompt: Given the compound CC/C(=C(\c1ccc(O)cc1)c1ccc(OCCNC)cc1)c1ccccc1 [(Z)-Endoxifen] , what is its reported Tmax?
Completion: 4.19

----------
Experiment: Placebo controlled, dose escalation pharmacokinetic study of oral (Z)-Endoxifen capsules (serum endoxifen; incl. accumulation ratios and dose linearity)
Type: in vivo, human
Conditions: female, human, serum, po, 2 mg, Day 21; dose 2 mg oral once daily; GeoMean, N 6; read-out: Tmax
value-type: Tmax (h)
Express your answer in h, writing the number without its unit.

Prompt: // query Tmax value for entry CC/C(=C(\c1ccc(O)cc1)c1ccc(OCCNC)cc1)c1ccccc1 [(Z)-Endoxifen]
Completion: 3.64

----------
Test: Placebo controlled, dose escalation pharmacokinetic study of oral (Z)-Endoxifen capsules (serum endoxifen; incl. accumulation ratios and dose linearity)
Assay type: in vivo, human
Details: female, human, serum, oral, 1 mg, Day 1; 1 mg; N = 5; read-out: Cmax, Mean
value-type: Cmax
Respond with the figure and its unit, in that order.

Prompt: Suppose we examine the compound CC/C(=C(\c1ccc(O)cc1)c1ccc(OCCNC)cc1)c1ccccc1 [(Z)-Endoxifen] ; what Cmax value has been reported?
Completion: 9.6 ng/mL

----------
Experiment: Placebo controlled, dose escalation pharmacokinetic study of oral (Z)-Endoxifen capsules (serum endoxifen; incl. accumulation ratios and dose linearity)
Type: in vivo, human
Details: female, human, serum, po, 2 mg/day, Day 21; 2 mg/day oral (n = 6); read-out: Cmax, Arithmetic Mean
value-type: Cmax (ng/mL)
Report the figure in ng/mL without appending any unit label.

Prompt: Field request: Cmax | item: CC/C(=C(\c1ccc(O)cc1)c1ccc(OCCNC)cc1)c1ccccc1 [(Z)-Endoxifen]
Completion: 50

----------
Test: Placebo controlled, dose escalation pharmacokinetic study of oral (Z)-Endoxifen capsules (serum endoxifen; incl. accumulation ratios and dose linearity)
Assay type: in vivo, human
Details: female, human, serum, oral, 2 mg, Day 1; 2 mg; N 6; read-out: Tmax, Mean
value-type: Tmax (h)
The answer is to be given in h; state only the numeric part.

Prompt: Look up Tmax for this compound: CC/C(=C(\c1ccc(O)cc1)c1ccc(OCCNC)cc1)c1ccccc1 [(Z)-Endoxifen]
Completion: 4.28
